System: human breast cancer (MCF-7)
measurement_protocol: Inhibition of tumour cell proliferation in vitro, MCF-7 ([3H]thymidine incorporation)
Format: cell-based
stated_conditions: MCF7, human MCF-7 cells, 24 hours, DNA synthesis by [3H]thymidine incorporation
readout_label: IC50 (nM)
Entry rule: numbers only, all in nM.

// solved cases for IC50 follow
[[record]]
compound = "N#CNC(=Nc1ccncc1)NCCCCCCCCCCOc1ccccc1"
readout_label = "IC50"
unit_of_measure = "nM"
endpoint_result = 13

[[record]]
compound = "N#CNC(=Nc1ccncc1)NCCCCCCCCCOc1ccccc1"
readout_label = "IC50"
unit_of_measure = "nM"
endpoint_result = 18

[[record]]
compound = "N#CNC(=Nc1ccncc1)NCCCCCCCCCCCOc1ccccc1"
readout_label = "IC50"
unit_of_measure = "nM"
endpoint_result = 21

[[record]]
compound = "N#CN=C(NCCCCCOc1ccccc1)Nc1ccncc1 [Prior art B, reference compound]"
readout_label = "IC50"
unit_of_measure = "nM"
endpoint_result = 250


Entry N#CN=C(NCCCCOc1ccccc1)Nc1ccncc1 [Prior art A, reference compound] has what IC50?
920
